assay: AUC (0 to 24 hrs) in HIV infected virological failure patient plasma; format: ADME, organism-based; design: time < 24 hr; conditions: human
property: AUC(0-t) at 24 h (ng·h/mL)

molecule	property	numeric.result
CC(C)(C)NC(=O)[C@@H]1C[C@@H]2CCCC[C@@H]2CN1C[C@@H](O)[C@H](Cc1ccccc1)NC(=O)[C@H](CC(N)=O)NC(=O)c1ccc2ccccc2n1 [SAQUINAVIR]	AUC(0-t) at 24 h	35300

* * *

experiment: Cmin in PBMC cellular compartment of HIV infected virological failure patient after 24 hrs; type: ADME, organism-based; details: human, in the assay text read “HIV infected patient” for “HIV infected virological failure patient”, read-out: Cmin
property: concentration at 24 h

> print(dat)
                                 cpd.smiles               property     result
1  CC(C)(C)NC(=O)[C@@H]1C[C@@H]2CCCC[C@@H]2CN1C[C@@H](O)[C@H](Cc1ccccc1)NC(=O)[C@H](CC(N)=O)NC(=O)c1ccc2ccccc2n1  concentration at 24 h  996 ng/mL

* * *

test: Cmin in HIV infected patient plasma after 24 hrs; assay type: ADME, organism-based; conditions: human, read-out: Cmin

molecule	concentration at 24 h (ng/mL)
CC(C)(C)NC(=O)[C@@H]1C[C@@H]2CCCC[C@@H]2CN1C[C@@H](O)[C@H](Cc1ccccc1)NC(=O)[C@H](CC(N)=O)NC(=O)c1ccc2ccccc2n1 [SAQUINAVIR]	431

* * *

test: Ratio of AUC (0 to 24 hrs) in PBMC cellular compartment to plasma in HIV infected virological failure patient; assay type: ADME, organism-based; details: human, read-out: AUC_ratio
property: Kp

> print(dat)
                                 cpd.smiles  property  numeric.result
1  CC(C)(C)NC(=O)[C@@H]1C[C@@H]2CCCC[C@@H]2CN1C[C@@H](O)[C@H](Cc1ccccc1)NC(=O)[C@H](CC(N)=O)NC(=O)c1ccc2ccccc2n1        Kp            3.53

* * *

assay: Ratio of Cmin in PBMC cellular compartment to plasma in HIV infected patient; assay type: ADME, organism-based; settings: human, read-out: Cmin_ratio

compound	Kp
CC(C)(C)NC(=O)[C@@H]1C[C@@H]2CCCC[C@@H]2CN1C[C@@H](O)[C@H](Cc1ccccc1)NC(=O)[C@H](CC(N)=O)NC(=O)c1ccc2ccccc2n1 [SAQUINAVIR]	2.39

* * *

assay: Cmax in PBMC cellular compartment of HIV infected virological failure patient after 24 hrs; assay type: ADME, organism-based; conditions: human
property: Cmax (ng/mL)

> print(dat)
                                 cpd.smiles  property  value.units  numeric.result
1  CC(C)(C)NC(=O)[C@@H]1C[C@@H]2CCCC[C@@H]2CN1C[C@@H](O)[C@H](Cc1ccccc1)NC(=O)[C@H](CC(N)=O)NC(=O)c1ccc2ccccc2n1      Cmax        ng/mL           15200

* * *

assay: Cmax in PBMC cellular compartment of HIV infected virological failure patient after 24 hrs; format: ADME, organism-based; settings: human, in the assay text read “HIV infected patient” for “HIV infected virological failure patient”
property: Cmax

> print(dat)
                                 cpd.smiles       result
1  CC(C)(C)NC(=O)[C@@H]1C[C@@H]2CCCC[C@@H]2CN1C[C@@H](O)[C@H](Cc1ccccc1)NC(=O)[C@H](CC(N)=O)NC(=O)c1ccc2ccccc2n1  10100 ng/mL
